Numbers sourced from ChEMBL document CHEMBL6177943.

# procedure.text: Cmax in Sprague-Dawley rat at 25 mg/kg, po measured after 8 hrs
# Assay type: ADME, organism-based
# applied.conditions: in vivo
parameter: Cmax (nM)
Answers are plain numbers, in nM.

stdin: Report Cmax, nothing else, for this compound: O=c1cccc2n1CC1CC2CN(Cc2cc(Cl)ccc2Cl)C1 (stereo unspecified)
stdout: 960
